Cited source for all entries: ChEMBL document CHEMBL1147687

Target: Melanin-concentrating hormone receptor 1 (Homo sapiens)
Sequence (Q99705 whole entry): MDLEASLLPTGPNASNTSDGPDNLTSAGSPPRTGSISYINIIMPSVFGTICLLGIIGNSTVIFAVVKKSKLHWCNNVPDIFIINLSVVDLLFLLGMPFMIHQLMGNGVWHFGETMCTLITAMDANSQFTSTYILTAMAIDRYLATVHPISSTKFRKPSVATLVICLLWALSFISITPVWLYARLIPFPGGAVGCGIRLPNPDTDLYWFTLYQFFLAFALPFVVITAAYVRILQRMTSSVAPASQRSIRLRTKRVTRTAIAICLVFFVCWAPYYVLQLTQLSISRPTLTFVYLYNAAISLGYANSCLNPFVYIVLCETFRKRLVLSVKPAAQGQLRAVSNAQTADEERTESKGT
Assay: Inhibition of MCH-mediated calcium release in whole IMR32 cells by FLIPR
Format: functional, cell-based, IMR-32
pIC50: −log10 of the molar value.
Assign true to entries whose pIC50 meets or exceeds 7; assign false to the rest.

Check if pIC50 >= 7 (inclusive). Item: CCCCCn1c(=O)nc(NC2CCN(Cc3ccc4c(c3)OCO4)CC2)c2cc(Cl)ccc21 true

API: above_or_equal(metric=pIC50, cutoff=7) for item O=c1cc(NC2CCN(Cc3ccc4c(c3)OCO4)CC2)c2cc(Cl)ccc2n1Cc1ccncc1 true

Item Cn1c(=O)c(C(=O)N2CCCC2)c(NC2CCN(Cc3ccc4c(c3)OCO4)CC2)c2cc(Cl)ccc21 with pIC50 of 7 or above? true

# check: pIC50 of O=c1cc(NC2CCN(Cc3ccc4c(c3)OCO4)CC2)c2cc(Cl)ccc2[nH]1 is greater than or equal to 7 true

Check the entry O=c1cc(NC2CCN(Cc3ccc4c(c3)OCO4)CC2)c2cc(Cl)ccc2n1Cc1ccccc1 : does pIC50 equal or exceed 7? true

Record COC(=O)c1c(NC2CCN(Cc3ccc4c(c3)OCO4)CC2)c2cc(Cl)ccc2n(C)c1=O ; criterion: pIC50 no lower than 7. Met? false
